Some compounds, each annotated with its measured viability, T/C.
- Tested on: 186277-243-T-J2-PDC complex spheroid growth, % test/control
- Assay: Anticancer human tumor 186277-243-T-J2-PDC patient-derived colon adenocarcinoma cell line growth inhibition [Asc]
- Condition: second compound 0.03 µM; first compound 0.1 µM; stronger effect = lower value
- Source text: Multicellular complex tumor spheroid response to apoptosis pathway targeting inhibitors Alrizomadlin, Pelcitoclax, and Dasminapant in combination with a variety of drugs and investigational agents in selected tumor cell lines […] Compounds. […] If the clinical Cmax for an agent had not been determined, the highest concentration tested was 10 microM. […]
A number alone suffices; assume %.

As a guide, the following entries are already answered.
Quote viability, T/C with test system 186277-243-T-J2-PDC complex spheroid growth, % test/control for O=C(c1cc(Cc2n[nH]c(=O)c3ccccc23)ccc1F)N1CCN(C(=O)C2CC2)CC1 + CCN1C(C(=O)NC23CCC(C(=O)O)(CC2)CC3)C(c2cccc(Cl)c2F)C2(C(=O)Nc3cc(Cl)ccc32)C12CCCCC2
135

Quote viability, T/C with test system 186277-243-T-J2-PDC complex spheroid growth, % test/control for O=C(c1ccc(F)c(F)c1Nc1ccc(I)cc1F)N1CC(O)([C@@H]2CCCCN2)C1 + CCN1C(C(=O)NC23CCC(C(=O)O)(CC2)CC3)C(c2cccc(Cl)c2F)C2(C(=O)Nc3cc(Cl)ccc32)C12CCCCC2
32.2

Quote viability, T/C with test system 186277-243-T-J2-PDC complex spheroid growth, % test/control for C#Cc1c(F)ccc2cc(O)cc(-c3ncc4c(N5CC6CCC(C5)N6)nc(OCC56CCCN5CC(F)C6)nc4c3F)c12 (stereo unspecified) + CCN1C(C(=O)NC23CCC(C(=O)O)(CC2)CC3)C(c2cccc(Cl)c2F)C2(C(=O)Nc3cc(Cl)ccc32)C12CCCCC2
55.3

Quote viability, T/C with test system 186277-243-T-J2-PDC complex spheroid growth, % test/control for COc1c(OCCCN2CCOCC2)ccc2c3n(c(=NC(=O)c4cnc(N)nc4)nc12)CCN3 + CCN1C(C(=O)NC23CCC(C(=O)O)(CC2)CC3)C(c2cccc(Cl)c2F)C2(C(=O)Nc3cc(Cl)ccc32)C12CCCCC2
18.1

Quote viability, T/C with test system 186277-243-T-J2-PDC complex spheroid growth, % test/control for C=CC(=O)N1CCN(c2nc(=O)n(-c3c(C)ccnc3C(C)C)c3nc(-c4c(O)cccc4F)c(F)cc23)C(C)C1 (stereo unspecified) + CCN1C(C(=O)NC23CCC(C(=O)O)(CC2)CC3)C(c2cccc(Cl)c2F)C2(C(=O)Nc3cc(Cl)ccc32)C12CCCCC2
119

Next item in the queue.
Quote viability, T/C with test system 186277-243-T-J2-PDC complex spheroid growth, % test/control for CCN1CCN(Cc2ccc(Nc3ncc(F)c(-c4cc(F)c5nc(C)n(C(C)C)c5c4)n3)nc2)CC1 + CCN1C(C(=O)NC23CCC(C(=O)O)(CC2)CC3)C(c2cccc(Cl)c2F)C2(C(=O)Nc3cc(Cl)ccc32)C12CCCCC2
97

###

Some molecules, each annotated with its measured pIC50.
- Test system: 186277-243-T-J2-PDC complex spheroid growth, % test/control
- Assay: Anticancer human tumor 186277-243-T-J2-PDC cell line growth inhibition [Asc];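 note: spheroids exposed to agents for 7 days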
- Condition: curve of first compound; second compound 0.1 µM
Hey, just a heads up that pIC50 is the negative log base 10 of the concentration in molar.

Complete the entry with pIC50 for COc1c(OCCCN2CCOCC2)ccc2c3n(c(=NC(=O)c4cnc(N)nc4)nc12)CCN3 + Cc1c(S(C)(=O)=O)c(-c2cc(F)cc(N3CCN(c4ccc(NS(=O)(=O)c5ccc(NC(CCN6CCC(C(=O)OCCCP(=O)(O)O)CC6)CSc6ccccc6)c(S(=O)(=O)C(F)(F)F)c5)cc4)CC3)c2)c(-c2ccc(Cl)cc2)n1C(C)C
7.36

Complete the entry with pIC50 for CCN1C(C(=O)NC23CCC(C(=O)O)(CC2)CC3)C(c2cccc(Cl)c2F)C2(C(=O)Nc3cc(Cl)ccc32)C12CCCCC2 (configuration not stated) + CNC(C)C(=O)NC1CN(S(=O)(=O)c2cccc(S(=O)(=O)N3CCC4CCC(C(=O)NC(c5ccccc5)c5ccccc5)N4C(=O)C(NC(=O)C(C)NC)C3)c2)CCC2CCC(C(=O)NC(c3ccccc3)c3ccccc3)N2C1=O
5.55

Complete the entry with pIC50 for C#Cc1c(F)ccc2cc(O)cc(-c3ncc4c(N5CC6CCC(C5)N6)nc(OCC56CCCN5CC(F)C6)nc4c3F)c12 (configuration not stated) + Cc1c(S(C)(=O)=O)c(-c2cc(F)cc(N3CCN(c4ccc(NS(=O)(=O)c5ccc(NC(CCN6CCC(C(=O)OCCCP(=O)(O)O)CC6)CSc6ccccc6)c(S(=O)(=O)C(F)(F)F)c5)cc4)CC3)c2)c(-c2ccc(Cl)cc2)n1C(C)C
6.75

Next item in the queue.
Complete the entry with pIC50 for NC(=O)C(=Cn1cnc(-c2cc(C(F)(F)F)cc(C(F)(F)F)c2)n1)c1cncnc1 + CNC(C)C(=O)NC1CN(S(=O)(=O)c2cccc(S(=O)(=O)N3CCC4CCC(C(=O)NC(c5ccccc5)c5ccccc5)N4C(=O)C(NC(=O)C(C)NC)C3)c2)CCC2CCC(C(=O)NC(c3ccccc3)c3ccccc3)N2C1=O
6.68

###

- Tested on: 186277-243-T-J2-PDC complex spheroid growth, % test/control
- Assay: Anticancer human tumor 186277-243-T-J2-PDC cell line growth inhibition [Asc];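 note: spheroids exposed to agents for 7 days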;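 for viability, T/C: 100% = DMSO vehicle control wells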
- Condition: second compound 1 µM; first compound 0.3 µM; stronger effect = lower value
Some compounds, each annotated with its measured viability, T/C.

Quote viability, T/C with test system 186277-243-T-J2-PDC complex spheroid growth, % test/control for NC(=O)C(=Cn1cnc(-c2cc(C(F)(F)F)cc(C(F)(F)F)c2)n1)c1cncnc1 + CNC(C)C(=O)NC1CN(S(=O)(=O)c2cccc(S(=O)(=O)N3CCC4CCC(C(=O)NC(c5ccccc5)c5ccccc5)N4C(=O)C(NC(=O)C(C)NC)C3)c2)CCC2CCC(C(=O)NC(c3ccccc3)c3ccccc3)N2C1=O
20.2%

Quote viability, T/C with test system 186277-243-T-J2-PDC complex spheroid growth, % test/control for CCN1C(C(=O)NC23CCC(C(=O)O)(CC2)CC3)C(c2cccc(Cl)c2F)C2(C(=O)Nc3cc(Cl)ccc32)C12CCCCC2 (stereo not drawn) + CNC(C)C(=O)NC1CN(S(=O)(=O)c2cccc(S(=O)(=O)N3CCC4CCC(C(=O)NC(c5ccccc5)c5ccccc5)N4C(=O)C(NC(=O)C(C)NC)C3)c2)CCC2CCC(C(=O)NC(c3ccccc3)c3ccccc3)N2C1=O
118%

New cases:
Quote viability, T/C with test system 186277-243-T-J2-PDC complex spheroid growth, % test/control for Cc1nc(N2CCC3(CC2)COC(C)C3N)c(CO)nc1Sc1ccnc(N)c1Cl (stereo not drawn) + Cc1c(S(C)(=O)=O)c(-c2cc(F)cc(N3CCN(c4ccc(NS(=O)(=O)c5ccc(NC(CCN6CCC(C(=O)OCCCP(=O)(O)O)CC6)CSc6ccccc6)c(S(=O)(=O)C(F)(F)F)c5)cc4)CC3)c2)c(-c2ccc(Cl)cc2)n1C(C)C
121%

###

- System: 186277-243-T-J2-PDC complex spheroid growth, % test/control
- Assay: Anticancer human tumor 186277-243-T-J2-PDC cell line growth inhibition [Asc];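 note: spheroids exposed to agents for 7 days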;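 for viability, T/C: 100% = DMSO vehicle control wells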
- Condition: second compound 3.16 µM; first compound 0.1 µM; stronger effect = lower value
- Text: Multicellular complex tumor spheroid response to apoptosis pathway targeting inhibitors Alrizomadlin, Pelcitoclax, and Dasminapant in combination with a variety of drugs and investigational agents in selected tumor cell lines […] Compounds. […] If the clinical Cmax for an agent had not been determined, the highest concentration tested was 10 microM. […]
Readout kind: viability, T/C (%)
A number alone suffices; assume %.

Complete the entry with viability, T/C for COc1c(OCCCN2CCOCC2)ccc2c3n(c(=NC(=O)c4cnc(N)nc4)nc12)CCN3 + Cc1c(S(C)(=O)=O)c(-c2cc(F)cc(N3CCN(c4ccc(NS(=O)(=O)c5ccc(NC(CCN6CCC(C(=O)OCCCP(=O)(O)O)CC6)CSc6ccccc6)c(S(=O)(=O)C(F)(F)F)c5)cc4)CC3)c2)c(-c2ccc(Cl)cc2)n1C(C)C
15.7

New cases:
Complete the entry with viability, T/C for CCN1CCN(Cc2ccc(Nc3ncc(F)c(-c4cc(F)c5nc(C)n(C(C)C)c5c4)n3)nc2)CC1 + Cc1c(S(C)(=O)=O)c(-c2cc(F)cc(N3CCN(c4ccc(NS(=O)(=O)c5ccc(NC(CCN6CCC(C(=O)OCCCP(=O)(O)O)CC6)CSc6ccccc6)c(S(=O)(=O)C(F)(F)F)c5)cc4)CC3)c2)c(-c2ccc(Cl)cc2)n1C(C)C
113

Complete the entry with viability, T/C for O=C(c1cc(Cc2n[nH]c(=O)c3ccccc23)ccc1F)N1CCN(C(=O)C2CC2)CC1 + Cc1c(S(C)(=O)=O)c(-c2cc(F)cc(N3CCN(c4ccc(NS(=O)(=O)c5ccc(NC(CCN6CCC(C(=O)OCCCP(=O)(O)O)CC6)CSc6ccccc6)c(S(=O)(=O)C(F)(F)F)c5)cc4)CC3)c2)c(-c2ccc(Cl)cc2)n1C(C)C
93.5
